The measured values listed here are drawn from PubChem BioAssay.

experiment: changes in parasitized red cell lysis, either direction – P. falciparum Indochina, OD700, 3 h, PSAC antagonist project, primary screen (AID 1156); details: P. falciparum-infected erythrocytes, osmotic lysis, higher = more signal, called active from +8 up or from −8 down
assayEndpoint: z-score
Output: the number by itself.

Examples from the recorded data:
molecule	z-score
NC(=O)[C@]1(Cc2ccccc2)N=C(c2ccc(OCCCO)cc2)O[C@@H]1c1ccccc1	0.531
CO[C@H]1O[C@H](CO)[C@@H](OC(=O)Nc2cccc(F)c2)[C@H](OC(=O)Nc2ccccc2-c2ccccc2)[C@@H]1OC(=O)Nc1ccccc1-c1ccccc1	0.346
Cc1ccc(S[C@]2(C(=O)NCC(F)(F)F)CC(=O)N(C3Cc4ccccc4C3)[C@@H]2c2ccc(CO)cc2I)cc1	0.577
CC(C)(C)OC(=O)CC[C@@]1(C(=O)N2CCOCC2)N=C(c2ccc(OCCCO)cc2)O[C@@H]1c1ccccc1N=[N+]=[N-]	1.09
O=C1O[C@@H](c2ccccc2)[C@@H](c2ccccc2)N2[C@@H](c3ccccc3OCCO)[C@]3(C(=O)Nc4ccc(C#CC5(O)CCCCCC5)cc43)[C@@H](C(=O)NC[C@H](O)c3ccccc3)[C@H]12	-1.02
C/C=C/[C@H](CCn1cc([C@H](O)c2ccccc2)nn1)[Si](C)(C)c1ccc(OC)cc1	0.39

Entry under review: C=CCC(OC(C)=O)[C@@H]1[C@@H](N(Cc2cc3ccccc3o2)C(=O)c2ccc(C)cc2)c2cc(OCCCO)ccc2N1C(=O)c1ccc(-c2ccccc2)cc1 (some centres not stated) . Reported z-score? -1.06
